TESTED_TARGET: HoblOBP4 (Holotrichia oblita, UniProt G9BWQ8)
Sequence (G9BWQ8 entry or part of it): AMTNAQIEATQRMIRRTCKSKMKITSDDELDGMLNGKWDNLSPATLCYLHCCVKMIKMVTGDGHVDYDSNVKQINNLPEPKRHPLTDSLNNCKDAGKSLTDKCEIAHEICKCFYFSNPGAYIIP
TEST_PROTOCOL: biochemical
Assay type: binding
DETAILS: pH 7.4, read-out: Int (fluorescence intensity as percent of the initial fluorescence)
The compounds listed here are annotated with their activity at 24 µM.
Only the number, expressed in %, is required.

Past entries and their recorded results:
COMPOUND	TESTED_TARGET	activity at 24 µM, %
CC(C)=CCC/C(C)=C/CO	HoblOBP4 (Holotrichia oblita, UniProt G9BWQ8)	44
CC(=O)/C=C/C1C(C)=CCCC1(C)C (stereo not shown)	HoblOBP4 (Holotrichia oblita, UniProt G9BWQ8)	45
CC(=O)CCC=C(C)C	HoblOBP4 (Holotrichia oblita, UniProt G9BWQ8)	52
CC1=CC[C@@H](C(C)(C)O)CC1	HoblOBP4 (Holotrichia oblita, UniProt G9BWQ8)	53
O=C/C=C/c1ccccc1	HoblOBP4 (Holotrichia oblita, UniProt G9BWQ8)	36
C=CCc1ccc(O)c(OC)c1	HoblOBP4 (Holotrichia oblita, UniProt G9BWQ8)	57
CC(=O)/C=C/C1=C(C)CCCC1(C)C	HoblOBP4 (Holotrichia oblita, UniProt G9BWQ8)	42
CCCCCCCC	HoblOBP4 (Holotrichia oblita, UniProt G9BWQ8)	51
CC1=CCC(O)(C(C)C)CC1 (stereo not shown)	HoblOBP4 (Holotrichia oblita, UniProt G9BWQ8)	48
C=C[C@](C)(O)CCC=C(C)C [R-(-)-Linalool]	HoblOBP4 (Holotrichia oblita, UniProt G9BWQ8)	46

Find the recorded activity at 24 µM belonging to CC/C=C\CCO [cis-3-Hexen-1-ol] and report it. 46

Find the recorded activity at 24 µM belonging to CCC/C=C/C=O [trans-2-Hexenal] and report it. 39

Find the recorded activity at 24 µM belonging to O=Cc1ccccc1 and report it. 44

====

TESTED_TARGET: HoblOBP3 (Holotrichia oblita, UniProt G9BWQ7)
Sequence (G9BWQ7 entry or part of it): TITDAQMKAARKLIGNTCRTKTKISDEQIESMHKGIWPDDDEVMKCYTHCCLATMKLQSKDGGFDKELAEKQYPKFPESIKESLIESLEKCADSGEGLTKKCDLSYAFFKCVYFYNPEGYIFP
TEST_PROTOCOL: biochemical
Type: binding
DETAILS: pH 7.4; HoblOBP3; at the ligand concentration 24 µM; protein and 1-NPN both 2 µM; read-out: Int (fluorescence intensity as percent of the initial fluorescence)
The following ranges of activity at 24 µM define the classes used here: low: < 60%; moderate: ≥ 60% and < 70%; high: ≥ 70%

COMPOUND	CLASSIFICATION
CCCCC=O [1-Pentanal]	moderate
CCCCCCO [1-Hexanol]	high
CCOC(=O)CN [Glycine ethyl ester]	high
OCCc1ccccc1 [Phenethyl alcohol]	moderate
C=C(C)C1CC=C(C)CC1 (stereo not drawn) [Limonene]	low

Consider CCCCCCC=O [1-Heptanal] . To which activity at 24 µM class does it belong? moderate

Consider CCCCCCC [Heptane] . To which activity at 24 µM class does it belong? moderate

Consider CCCCCCOC(=O)c1ccccc1 [Hexyl benzoate] . To which activity at 24 µM class does it belong? low

Consider CC/C=C\CCOC(C)=O [(Z)-3-Hexenyl acetate] . To which activity at 24 µM class does it belong? high

====

TESTED_TARGET: HoblOBP3 (Holotrichia oblita, UniProt G9BWQ7)
TEST_PROTOCOL: biochemical
Assay type: binding
DETAILS: HoblOBP3; protein and 1-NPN both 2 µM; ligand titrated 2–50 µM; read-out: IC50 (concentration of ligand halving the initial fluorescence intensity)
QUANTITY_NAME: pIC50
Remember the convention: pIC50 equals -log10 of concentration in molar.

Find the recorded pIC50 belonging to CCCCC=O and report it. 4.39
